target: HIV reverse transcriptase (RT) (Human immunodeficiency virus type 1 group M subtype B); construct: The enzyme RT (from HIV cloned in E. coli); purchased HT-Biotechnology Ltd, Cambridge, UK; host or cells: E. coli; test: Assay for HIV reverse transcriptase inhibition (scintillation proximity assay); assay type: biochemical; conditions: RT from HIV cloned in E. coli; SPA, 60 minutes (37° C.)

molecule	experimental target	Reverse Transcriptase Assay IC50
C=C(C)OC(=O)N1c2cc(Cl)ccc2NC(=O)C1C(C)C (stereo not shown)	HIV reverse transcriptase (RT) (Human immunodeficiency virus type 1 group M subtype B)	0.1 to 1 µg/mL
C=C(C)OC(=O)N1c2cc(Cl)ccc2NC(=O)C1(C)C	HIV reverse transcriptase (RT) (Human immunodeficiency virus type 1 group M subtype B)	0.1 to 1 µg/mL
C=C(C)OC(=O)N1c2ccc(Cl)cc2NC(=S)C1(C)C	HIV reverse transcriptase (RT) (Human immunodeficiency virus type 1 group M subtype B)	approx. 1 μg/ml
CCC1C(=O)Nc2ccc(Cl)cc2N1CC=C(C)C (stereo not shown)	HIV reverse transcriptase (RT) (Human immunodeficiency virus type 1 group M subtype B)	0.1 to 1 µg/mL
COc1ccc2c(c1)N(C(=O)OC(C)C)C(CSC)C(=O)N2 (stereo not shown)	HIV reverse transcriptase (RT) (Human immunodeficiency virus type 1 group M subtype B)	0.01 to 0.1 µg/mL
CSCC1C(=O)Nc2ccc(Cl)cc2N1CC=C(C)C (stereo not shown)	HIV reverse transcriptase (RT) (Human immunodeficiency virus type 1 group M subtype B)	0.1 to 1 µg/mL
CC(C)=CCN1c2cccc(C)c2NC(=O)C1(C)C	HIV reverse transcriptase (RT) (Human immunodeficiency virus type 1 group M subtype B)	approx. 1 μg/ml
CC(C)OC(=O)N1c2cc(Cl)ccc2NC(=O)C1C (stereo not shown)	HIV reverse transcriptase (RT) (Human immunodeficiency virus type 1 group M subtype B)	0.1 to 1 µg/mL
CCCOC(=O)N1c2cc(Cl)ccc2NC(=S)C1(C)C	HIV reverse transcriptase (RT) (Human immunodeficiency virus type 1 group M subtype B)	<0.01 µg/mL
C=CCOC(=O)N1c2cc(Cl)ccc2NC(=O)C1CCC (stereo not shown)	HIV reverse transcriptase (RT) (Human immunodeficiency virus type 1 group M subtype B)	0.1 to 1 µg/mL
C=CCOC(=O)N1c2cc(Cl)ccc2NC(=S)C1(C)C	HIV reverse transcriptase (RT) (Human immunodeficiency virus type 1 group M subtype B)	0.01 to 0.1 µg/mL
C=C(C)OC(=O)N1c2cc(OC)ccc2NC(=O)C1CSC (stereo not shown)	HIV reverse transcriptase (RT) (Human immunodeficiency virus type 1 group M subtype B)	0.01 to 0.1 µg/mL
CC1(C)Nc2cc(Cl)ccc2NC1=S	HIV reverse transcriptase (RT) (Human immunodeficiency virus type 1 group M subtype B)	0.1 to 1 µg/mL
C=C(C)OC(=O)N1c2ccc(Cl)cc2NC(=O)C1(C)C	HIV reverse transcriptase (RT) (Human immunodeficiency virus type 1 group M subtype B)	approx. 1 μg/ml
C=C(C)OC(=O)N1c2cc(Cl)ccc2NC(=O)[C@@H]1C	HIV reverse transcriptase (RT) (Human immunodeficiency virus type 1 group M subtype B)	0.04 µg/mL
CC(C)=CCN1c2ccc(C)c(C)c2NC(=O)C1(C)C	HIV reverse transcriptase (RT) (Human immunodeficiency virus type 1 group M subtype B)	approx. 1 μg/ml
C=CCOC(=O)N1c2cc(Cl)ccc2NC(=O)C1C (stereo not shown)	HIV reverse transcriptase (RT) (Human immunodeficiency virus type 1 group M subtype B)	0.08 µg/mL
CSCC1C(=O)Nc2ccc(Cl)cc2N1C(=O)OC(C)C (stereo not shown)	HIV reverse transcriptase (RT) (Human immunodeficiency virus type 1 group M subtype B)	0.01 to 0.1 µg/mL
CC(C)OC(=O)N1c2cc(Cl)ccc2NC(=S)C1(C)C	HIV reverse transcriptase (RT) (Human immunodeficiency virus type 1 group M subtype B)	0.01 to 0.1 µg/mL
C=C(C)OC(=O)N1c2cc(Cl)ccc2NC(=O)C1CC(C)C (stereo not shown)	HIV reverse transcriptase (RT) (Human immunodeficiency virus type 1 group M subtype B)	approx. 1 μg/ml
CC1C(=O)Nc2ccc(Cl)cc2N1Cc1ccco1 (stereo not shown)	HIV reverse transcriptase (RT) (Human immunodeficiency virus type 1 group M subtype B)	approx. 1 μg/ml
CC1C(=O)Nc2ccc(Cl)cc2N1Cc1ccsc1 (stereo not shown)	HIV reverse transcriptase (RT) (Human immunodeficiency virus type 1 group M subtype B)	0.1 to 1 µg/mL
CC1C(=O)Nc2ccc(Cl)cc2N1Cc1cc(Cl)cc(Cl)c1 (stereo not shown)	HIV reverse transcriptase (RT) (Human immunodeficiency virus type 1 group M subtype B)	0.1 to 1 µg/mL
CSCCOC(=O)N1c2cc(Cl)ccc2NC(=O)C1C (stereo not shown)	HIV reverse transcriptase (RT) (Human immunodeficiency virus type 1 group M subtype B)	approx. 1 μg/ml
C=CCOC(=O)N1c2cc(Cl)ccc2NC(=S)C1C (stereo not shown)	HIV reverse transcriptase (RT) (Human immunodeficiency virus type 1 group M subtype B)	0.11 µg/mL
C=C(C)OC(=O)N1c2cc(Cl)ccc2NC(=S)C1CC (stereo not shown)	HIV reverse transcriptase (RT) (Human immunodeficiency virus type 1 group M subtype B)	0.01 to 0.1 µg/mL
CC1C(=O)Nc2ccc(Cl)cc2N1Cc1c(Cl)cccc1Cl (stereo not shown)	HIV reverse transcriptase (RT) (Human immunodeficiency virus type 1 group M subtype B)	0.1 to 1 µg/mL
CC1C(=S)Nc2ccc(Cl)cc2N1Cc1ccccc1 (stereo not shown)	HIV reverse transcriptase (RT) (Human immunodeficiency virus type 1 group M subtype B)	0.07 µg/mL
CSCC1C(=S)Nc2ccc(Cl)cc2N1Cc1ccccn1 (stereo not shown)	HIV reverse transcriptase (RT) (Human immunodeficiency virus type 1 group M subtype B)	0.01 to 0.1 µg/mL
CCC1C(=S)Nc2ccc(Cl)cc2N1Cc1ccccn1 (stereo not shown)	HIV reverse transcriptase (RT) (Human immunodeficiency virus type 1 group M subtype B)	0.01 to 0.1 µg/mL
CC(C)=CCN1c2cc(C)c(C)cc2NC(=S)C1(C)C	HIV reverse transcriptase (RT) (Human immunodeficiency virus type 1 group M subtype B)	approx. 1 μg/ml
CC1C(=O)Nc2ccc(Cl)cc2N1Cc1cccc([N+](=O)[O-])c1 (stereo not shown)	HIV reverse transcriptase (RT) (Human immunodeficiency virus type 1 group M subtype B)	approx. 1 μg/ml
CCCOC(=O)N1c2cc(Cl)ccc2NC(=O)C1C (stereo not shown)	HIV reverse transcriptase (RT) (Human immunodeficiency virus type 1 group M subtype B)	0.1 to 1 µg/mL
C=C(C)OC(=O)N1c2cc(Cl)ccc2NC(=O)C1C(C)CC (stereo not shown)	HIV reverse transcriptase (RT) (Human immunodeficiency virus type 1 group M subtype B)	approx. 1 μg/ml
C=C(C)OC(=O)N1c2cc(OC)ccc2NC(=S)C1CSC (stereo not shown)	HIV reverse transcriptase (RT) (Human immunodeficiency virus type 1 group M subtype B)	<0.01 µg/mL
CC1C(=O)Nc2ccc(Cl)cc2N1C(=O)SCc1ccccc1 (stereo not shown)	HIV reverse transcriptase (RT) (Human immunodeficiency virus type 1 group M subtype B)	0.1 to 1 µg/mL
C=C(C)OC(=O)N1c2ccc(C)c(C)c2NC(=O)C1(C)C	HIV reverse transcriptase (RT) (Human immunodeficiency virus type 1 group M subtype B)	0.1 to 1 µg/mL
CC(C)OC(=O)N1c2cc(Cl)ccc2NC(=O)C1(C)C	HIV reverse transcriptase (RT) (Human immunodeficiency virus type 1 group M subtype B)	0.01 to 0.1 µg/mL
CC1C(=O)Nc2ccc(Cl)cc2N1Cc1ccccn1 (stereo not shown)	HIV reverse transcriptase (RT) (Human immunodeficiency virus type 1 group M subtype B)	approx. 1 μg/ml
C=CCOC(=O)N1c2cc(Cl)ccc2NC(=S)C1CC (stereo not shown)	HIV reverse transcriptase (RT) (Human immunodeficiency virus type 1 group M subtype B)	0.01 to 0.1 µg/mL

====

target: HIV reverse transcriptase (RT) (Human immunodeficiency virus type 1 group M subtype B, UniProt P03366); construct: The enzyme RT (from HIV cloned in E. coli); purchased HT-Biotechnology Ltd, Cambridge, UK; host or cells: E. coli; assay: Assay for HIV reverse transcriptase inhibition (scintillation proximity assay); format: biochemical; conditions: RT from HIV cloned in E. coli; SPA, 60 minutes (37° C.)

compound	Reverse Transcriptase Assay IC50
CCOC(=O)N1c2cc(Cl)ccc2NC(=S)C1(C)C [Example 7-24]	<0.01 µg/mL
C=C(C)OC(=O)N1c2cc(Cl)ccc2NC(=O)C1CSC (centres unmarked) [Example 3-76]	0.018 µg/mL
CCCCOC(=O)N1c2cc(Cl)ccc2NC(=O)C1C (centres unmarked) [Example 3-25]	0.1 to 1 µg/mL
C=C(C)COC(=O)N1c2cc(Cl)ccc2NC(=O)C1C (centres unmarked) [Example 11-7]	approx. 1 μg/ml
C=C(C)OC(=O)N1c2ccc(Cl)cc2NC(=O)C1C(C)C (centres unmarked) [Example 3-57]	approx. 1 μg/ml
CC(C)=CCN1c2cc(Cl)ccc2NC(=O)C1(C)C [Example 6-1]	approx. 1 μg/ml
CC(C)=CCN1c2cc(Cl)ccc2NC(=S)C1C (centres unmarked) [Example 7-2]	0.07 µg/mL
C=CCOC(=O)N1c2cc(Cl)ccc2NC(=S)C1CCC (centres unmarked) [Example 7-18]	0.01 to 0.1 µg/mL
C=C(C)OC(=O)N1c2cc(Cl)ccc2NC(=S)C1CCC (centres unmarked) [Example 7-17]	0.01 to 0.1 µg/mL
CC1C(=S)Nc2ccc(Cl)cc2N1Cc1ccccn1 (centres unmarked) [Example 7-19]	0.01 to 0.1 µg/mL
CC(C)=CCN1c2cc(Cl)ccc2NC(=S)C1(C)C [Example 7-7]	0.1 µg/mL
CC1C(=S)Nc2ccc(Cl)cc2N1Cc1cccnc1 (centres unmarked) [Example 7-20]	0.1 to 1 µg/mL
C#CCN1c2cc(Cl)ccc2NC(=O)C1C (centres unmarked) [Example 10-9]	approx. 1 μg/ml
CCOC(=O)N1c2cc(Cl)ccc2NC(=O)C1C (centres unmarked) [Example 3-23]	0.1 to 1 µg/mL
C=C(C)OC(=O)N1c2cc(Cl)ccc2NC(=S)C1CSC (centres unmarked) [Example 7-23]	0.01 to 0.1 µg/mL
C=CCSC(=O)N1c2cc(Cl)ccc2NC(=O)C1C (centres unmarked) [Example 11-6]	0.1 to 1 µg/mL

Every entry's value here was drawn from patent US6369057B1.
